- System: HCT-116
- method_description: In vitro inhibition of proliferation of human colon cancer line 116 after 72 hrs incubation.
- Type: functional, cell-based
- conditions_used: HCT-116, 72 h
measured_parameter: IC50 (nM)
The reply should contain only the number, in nM.

Inquiry: // IC50 lookup, key: CCCCNC(=O)OC1C[C@H]2OC[C@@]2(OC(C)=O)C2[C@H](OC(=O)c3ccccc3)[C@]3(O)C[C@H](OC(=O)[C@H](O)[C@@H](NC(=O)c4ccccc4)c4ccccc4)C(C)=C([C@@H](OC(C)=O)C(=O)[C@]12C)C3(C)C (some centres not stated)
Reply text: 46

* * *

- target_or_system: Tubulin alpha chain (Sus scrofa)
- method_description: Initial tubulin polymerization rate relative to taxol.
- Assay type: functional
measured_parameter: Initial rate ratio
Enter a number only.

Inquiry: Please state recorded Initial rate ratio (tested on Tubulin alpha chain (Sus scrofa)) of CC(=O)O[C@H]1C(=O)[C@]2(C)C(O[Si](C)(C)C)C[C@H]3OC[C@@]3(OC(C)=O)C2[C@H](OC(=O)c2ccccc2)[C@]2(O)C[C@H](OC(=O)[C@H](O)[C@@H](NC(=O)c3ccccc3)c3ccccc3)C(C)=C1C2(C)C (some centres undefined)
Reply text: 0

Inquiry: State its Initial rate ratio on Tubulin alpha chain (Sus scrofa): CCOC(=O)O[C@H]1C[C@H]2OC[C@@]2(OC(C)=O)C2[C@H](OC(=O)c3ccccc3)[C@]3(O)C[C@H](OC(=O)[C@H](O)[C@@H](NC(=O)c4ccccc4)c4ccccc4)C(C)=C([C@@H](OC(C)=O)C(=O)[C@@]21C)C3(C)C (some centres undefined)
Reply text: 0.72

Inquiry: Notebook: pull reported Initial rate ratio for Tubulin alpha chain (Sus scrofa), entry CC(=O)O[C@H]1C(=O)[C@@]2(C)C([C@H](OC(=O)c3ccccc3)[C@]3(O)C[C@H](OC(=O)[C@H](O)[C@@H](NC(=O)OC(C)(C)C)c4ccccc4)C(C)=C1C3(C)C)[C@]1(OC(C)=O)CO[C@@H]1C[C@H]2F (some centres undefined)
Reply text: 0.8

Inquiry: Item: CC(=O)O[C@H]1C(=O)[C@]23C[C@H]2C[C@H]2OC[C@@]2(OC(C)=O)C3[C@H](OC(=O)c2ccccc2)[C@]2(O)C[C@H](OC(=O)[C@H](O)[C@@H](NC(=O)c3ccccc3)c3ccccc3)C(C)=C1C2(C)C (some centres undefined) Test system: Tubulin alpha chain (Sus scrofa) Read-out: Initial rate ratio Value: ?
Reply text: 0.56

* * *

- target_or_system: Tubulin alpha chain (Sus scrofa)
- method_description: Initial tubulin polymerization rate relative to taxol.
- Assay type: functional
Field: label. Allowed values: MET (Initial rate ratio < 0.7) or NOT MET (Initial rate ratio >= 0.7).

Inquiry: Quick check: does CCCCNC(=O)OC1C[C@H]2OC[C@@]2(OC(C)=O)C2[C@H](OC(=O)c3ccccc3)[C@]3(O)C[C@H](OC(=O)[C@H](O)[C@@H](NC(=O)c4ccccc4)c4ccccc4)C(C)=C([C@@H](OC(C)=O)C(=O)[C@]12C)C3(C)C (stereo not given in full) have Initial rate ratio under 0.7?
Reply text: NOT MET

Inquiry: I wonder whether CC(=O)O[C@H]1C(=O)[C@]2(C)CC[C@H]3OC[C@@]3(OC(C)=O)C2[C@H](OC(=O)c2ccccc2)[C@]2(O)C[C@H](OC(=O)[C@H](O)[C@@H](NC(=O)c3ccccc3)c3ccccc3)C(C)=C1C2(C)C (stereo not given in full) has Initial rate ratio below 0.7. Can you tell?
Reply text: MET

Inquiry: Initial rate ratio under 0.7? Item: CC(=O)O[C@H]1C(=O)[C@@]2(C)C([C@H](OC(=O)c3ccccc3)[C@]3(O)C[C@H](OC(=O)[C@H](O)[C@@H](NC(=O)c4ccccc4)c4ccccc4)C(C)=C1C3(C)C)[C@]1(OC(C)=O)CO[C@@H]1C[C@H]2F (stereo not given in full)
Reply text: NOT MET

Inquiry: Does CC(=O)O[C@H]1C(=O)[C@@]2(C)C([C@H](OC(=O)c3ccccc3)[C@]3(O)C[C@H](OC(=O)[C@H](O)[C@@H](NC(=O)c4ccccc4)c4ccccc4)C(C)=C1C3(C)C)[C@]1(OC(C)=O)CO[C@@H]1C[C@@H]2OC(=O)CCl (stereo not given in full) have Initial rate ratio strictly under 0.7?
Reply text: NOT MET

Inquiry: Below 0.7 on Initial rate ratio? Entry CC(=O)O[C@H]1C(=O)[C@]2(C)C=C[C@H]3OC[C@@]3(OC(C)=O)C2[C@H](OC(=O)c2ccccc2)[C@]2(O)C[C@H](OC(=O)[C@H](O)[C@@H](NC(=O)c3ccccc3)c3ccccc3)C(C)=C1C2(C)C (stereo not given in full)
Reply text: NOT MET

Inquiry: Here's an entry: CC(=O)O[C@H]1C(=O)[C@]2(C)C(OC(=O)NCCN(C)C)C[C@H]3OC[C@@]3(OC(C)=O)C2[C@H](OC(=O)c2ccccc2)[C@]2(O)C[C@H](OC(=O)[C@H](O)[C@@H](NC(=O)c3ccccc3)c3ccccc3)C(C)=C1C2(C)C (stereo not given in full) . Is its Initial rate ratio below 0.7?
Reply text: MET

Inquiry: Determine whether this compound shows Initial rate ratio lower than 0.7 (ties excluded): CC(=O)O[C@H]1C(=O)[C@@]2(C)C([C@H](OC(=O)c3ccccc3)[C@]3(O)C[C@H](OC(=O)[C@H](O)[C@@H](NC(=O)c4ccccc4)c4ccccc4)C(C)=C1C3(C)C)[C@]1(OC(C)=O)CO[C@@H]1C[C@@H]2OS(C)(=O)=O (stereo not given in full)
Reply text: NOT MET

Inquiry: Lab log: compare recorded Initial rate ratio with 0.7; is it strictly lower for CC[Si](CC)(CC)OC1C[C@H]2OC[C@@]2(OC(C)=O)C2[C@H](OC(=O)c3ccccc3)[C@]3(O)C[C@H](OC(=O)[C@H](O)[C@@H](NC(=O)c4ccccc4)c4ccccc4)C(C)=C([C@@H](OC(C)=O)C(=O)[C@]12C)C3(C)C (stereo not given in full) ?
Reply text: MET

Inquiry: Determine whether this compound shows Initial rate ratio lower than 0.7 (ties excluded): CC(=O)O[C@H]1C(=O)[C@]2(C)CC[C@H]3OC[C@@]3(OC(C)=O)C2[C@H](OC(=O)c2ccccc2)[C@]2(O)C[C@H](OC(=O)[C@H](O)[C@@H](NC(=O)OC(C)(C)C)c3ccccc3)C(C)=C1C2(C)C (stereo not given in full)
Reply text: NOT MET

* * *

- Test system: HCT-116
- method_description: In vitro inhibition of proliferation of human colon cancer line 116 after 72 hrs incubation.
- Type: functional, cell-based
- conditions_used: HCT-116, 72 h
Would you mind telling me the reported IC50 of each entry?

Inquiry: Hi! What's the reported IC50 for CC[Si](CC)(CC)OC1C[C@H]2OC[C@@]2(OC(C)=O)C2[C@H](OC(=O)c3ccccc3)[C@]3(O)C[C@H](OC(=O)[C@H](O)[C@@H](NC(=O)c4ccccc4)c4ccccc4)C(C)=C([C@@H](OC(C)=O)C(=O)[C@]12C)C3(C)C (stereo partly drawn) on HCT-116?
Reply text: > 78 nM

Inquiry: Provide value of IC50 for this record tested with HCT-116: CC(=O)O[C@H]1C(=O)[C@]2(C)C(O[Si](C)(C)C)C[C@H]3OC[C@@]3(OC(C)=O)C2[C@H](OC(=O)c2ccccc2)[C@]2(O)C[C@H](OC(=O)[C@H](O)[C@@H](NC(=O)c3ccccc3)c3ccccc3)C(C)=C1C2(C)C (stereo partly drawn)
Reply text: > 60 nM

Inquiry: Entry CC(=O)O[C@H]1C(=O)[C@@]2(C)C([C@H](OC(=O)c3ccccc3)[C@]3(O)C[C@H](OC(=O)[C@H](O)[C@@H](NC(=O)c4ccccc4)c4ccccc4)C(C)=C1C3(C)C)[C@]1(OC(C)=O)CO[C@@H]1C[C@H]2O (stereo partly drawn) , system HCT-116: what IC50 was measured?
Reply text: 2 nM

Inquiry: Fill in the recorded IC50 for this molecule, with HCT-116 as test system: CCOC(=O)O[C@H]1C[C@H]2OC[C@@]2(OC(C)=O)C2[C@H](OC(=O)c3ccccc3)[C@]3(O)C[C@H](OC(=O)[C@H](O)[C@@H](NC(=O)c4ccccc4)c4ccccc4)C(C)=C([C@@H](OC(C)=O)C(=O)[C@@]21C)C3(C)C (stereo partly drawn)
Reply text: 6 nM

Inquiry: # query: IC50 | item CC(=O)O[C@H]1C(=O)[C@]2(C)C(OC(=O)NCCN(C)C)C[C@H]3OC[C@@]3(OC(C)=O)C2[C@H](OC(=O)c2ccccc2)[C@]2(O)C[C@H](OC(=O)[C@H](O)[C@@H](NC(=O)c3ccccc3)c3ccccc3)C(C)=C1C2(C)C (stereo partly drawn) | system: HCT-116
Reply text: > 100 nM

Inquiry: I'm curious: which IC50 was measured for CC(=O)O[C@H]1C(=O)[C@@]2(C)C([C@H](OC(=O)c3ccccc3)[C@]3(O)C[C@H](OC(=O)[C@H](O)[C@@H](NC(=O)OC(C)(C)C)c4ccccc4)C(C)=C1C3(C)C)[C@]1(OC(C)=O)CO[C@@H]1C[C@H]2F (stereo partly drawn) tested on HCT-116?
Reply text: 4.7 nM

Inquiry: Record lookup: for HCT-116, what IC50 belongs to CC(=O)O[C@H]1C(=O)[C@]2(C)CC[C@H]3OC[C@@]3(OC(C)=O)C2[C@H](OC(=O)c2ccccc2)[C@]2(O)C[C@H](OC(=O)[C@H](O)[C@@H](NC(=O)OC(C)(C)C)c3ccccc3)C(C)=C1C2(C)C (stereo partly drawn) ?
Reply text: 1.6 nM

Inquiry: Notebook: pull reported IC50 for HCT-116, entry CC(=O)O[C@@]12CO[C@@H]1C[C@H](O)[C@@]1(C)C(=O)[C@H](O)C3=C(C)[C@@H](OC(=O)[C@H](O)[C@@H](NC(=O)OC(C)(C)C)c4ccccc4)C[C@@](O)([C@@H](OC(=O)c4ccccc4)[C@H]21)C3(C)C [DOCETAXEL]
Reply text: 3 nM

Origin of measurements: ChEMBL document CHEMBL1151531
